system: NCI-H2591 (Mesothelioma); assay: Bliss excess, mean over the matrix (fraction); higher = more synergy
// N strictly below -0.02 in Bliss excess; Y otherwise

Solved entries:
* COc1nnc2ccc(N3CCC(c4ccc(OCCN5CCN(C)C(=O)[C@H]5C)cc4)CC3)nn12 [AZD5153] + CN(CC[C@H](CSC1=CC=CC=C1)NC2=C(C=C(C=C2)S(=O)(=O)NC(=O)C3=CC=C(C=C3)N4CCC(CC4)[C@H](C5=CC=CC=C5C6=CC=C(C=C6)Cl)O)S(=O)(=O)C(F)(F)F)CCO [AZD4320] (first compound max 1 µM, 7x7, partner max 1 µM) | Y
* CC1(C)CCC(CN2CCN(c3ccc(C(=O)NS(=O)(=O)c4ccc(NCC5CCOCC5)c([N+](=O)[O-])c4)c(Oc4cnc5[nH]ccc5c4)c3)CC2)=C(c2ccc(Cl)cc2)C1 [Venetoclax] + Cc1cc2ncnn2cc1Nc1ncc2c(n1)n(C1CCOCC1)c(=O)n2C [AZD7648] (first compound max 1 µM, 7x7, partner max 10 µM) | N
* Cc1c2c(nn1C)CSCc1cc(n(C)n1)CSc1cc(c3ccccc3c1)OCCCc1c(C(=O)O)n(C)c3c-2c(Cl)ccc13 [AZD5991] + Cc1cc2ncnn2cc1Nc1ncc2c(n1)n(C1CCOCC1)c(=O)n2C [AZD7648] (first compound max 1 µM, 7x7, partner max 10 µM) | Y

Does NC1(C(=O)N[C@@H](CCO)c2ccc(Cl)cc2)CCN(c2ncnc3[nH]ccc23)CC1 [Capivasertib] + Cn1cnc2c(F)c(Nc3ccc(Br)cc3Cl)c(C(=O)NOCCO)cc21 [Selumetinib] (first compound max 10 µM, 7x7, partner max 10 µM) have a reported Bliss excess of at least -0.02?
Y

Does COc1cccc(OCCCN)c1-c1cc(Nc2cnc(C#N)cn2)n[nH]1 [Prexasertib] + O=C(c1cc(Cc2n[nH]c(=O)c3ccccc23)ccc1F)N1CCN(C(=O)C2CC2)CC1 [Olaparib] (first compound max 1 µM, 7x7, partner max 10 µM) have a reported Bliss excess of at least -0.02?
N

Does Cc1cc2ncnn2cc1Nc1ncc2c(n1)n(C1CCOCC1)c(=O)n2C [AZD7648] + C=CCn1c(=O)c2cnc(Nc3ccc(N4CCN(C)CC4)cc3)nc2n1-c1cccc(C(C)(C)O)n1 [AZD1775] (first compound max 10 µM, partner max 1 µM) have a reported Bliss excess of at least -0.02?
Y

---

tested on: FU97 (Gastric Carcinoma); assay: Bliss excess, mean over the matrix (fraction); higher = more synergy
readoutKind: Bliss excess
When you answer, write just the number.

// below: answered molecules
• CN(CCO)CC[C@H](CSc1ccccc1)Nc1ccc(S(=O)(=O)NC(=O)c2ccc(N3CCC([C@@H](O)c4ccccc4-c4ccc(Cl)cc4)CC3)cc2)cc1S(=O)(=O)C(F)(F)F [AZD4320] + CN(C)CCCOc1ccc(-c2ccc3ncc4c(c3c2)n(C2CCOCC2)c(=O)n4C)cn1 [AZD0156] (first compound max 1 µM, 7x7, partner max 1 µM) = -0.0303
• C=CCn1c(=O)c2cnc(Nc3ccc(N4CCN(C)CC4)cc3)nc2n1-c1cccc(C(C)(C)O)n1 [AZD1775] + O=C(c1cc(Cc2n[nH]c(=O)c3ccccc23)ccc1F)N1CCN(C(=O)C2CC2)CC1 [Olaparib] (first compound max 1 µM, partner max 10 µM) = -0.148
• Cn1cnc2c(F)c(Nc3ccc(Br)cc3Cl)c(C(=O)NOCCO)cc21 [Selumetinib] + CCN(CCO)CCCOc1ccc2c(Nc3cc(CC(=O)Nc4cccc(F)c4)[nH]n3)ncnc2c1 [AZD2811] (first compound max 10 µM, 7x7, partner max 1 µM) = -0.0013
• C=CCn1c(=O)c2cnc(Nc3ccc(N4CCN(C)CC4)cc3)nc2n1-c1cccc(C(C)(C)O)n1 [AZD1775] + CCc1c2c(nc3ccc(O)cc13)-c1cc3c(c(=O)n1C2)COC(=O)[C@]3(O)CC [SN-38] (first compound max 1 µM, partner max 0.3 µM) = -0.0007
• CC1(C)CCC(CN2CCN(c3ccc(C(=O)NS(=O)(=O)c4ccc(NCC5CCOCC5)c([N+](=O)[O-])c4)c(Oc4cnc5[nH]ccc5c4)c3)CC2)=C(c2ccc(Cl)cc2)C1 [Venetoclax] + COc1cc(Nc2ncc3c(n2)-c2ccc(Cl)cc2C(c2c(F)cccc2OC)=NC3)ccc1C(=O)O [Alisertib] (first compound max 1 µM, 7x7, partner max 10 µM) = -0.0524
• NC1(C(=O)N[C@@H](CCO)c2ccc(Cl)cc2)CCN(c2ncnc3[nH]ccc23)CC1 [Capivasertib] + C[C@@H]1COCCN1C2=NC(=NC(=C2)C3(CC3)[S@](=N)(=O)C)C4=C5C=CNC5=NC=C4 [AZD6738] (first compound max 10 µM, 7x7, partner max 10 µM) = -0.0176
• NC1(C(=O)N[C@@H](CCO)c2ccc(Cl)cc2)CCN(c2ncnc3[nH]ccc23)CC1 [Capivasertib] + COc1nnc2ccc(N3CCC(c4ccc(OCCN5CCN(C)C(=O)[C@H]5C)cc4)CC3)nn12 [AZD5153] (first compound max 10 µM, 7x7, partner max 1 µM) = -0.0154
• COc1nnc2ccc(N3CCC(c4ccc(OCCN5CCN(C)C(=O)[C@H]5C)cc4)CC3)nn12 [AZD5153] + C[C@@H]1COCCN1C2=NC(=NC(=C2)C3(CC3)[S@](=N)(=O)C)C4=C5C=CNC5=NC=C4 [AZD6738] (first compound max 1 µM, 7x7, partner max 10 µM) = 0.0043

Provide value of Bliss excess for this record tested with FU97 (Gastric Carcinoma): N#Cc1cnc(Nc2cc(NC[C@H]3CNCCO3)c(C(F)(F)F)cn2)cn1 [SRA737] + Nc1ccn([C@@H]2O[C@H](CO)[C@@H](O)C2(F)F)c(=O)n1 [Gemcitabine] (first compound max 10 µM, 7x7, partner max 0.3 µM)
-0.0494

Provide value of Bliss excess for this record tested with FU97 (Gastric Carcinoma): C[C@@H](Oc1cc(-c2cnn(C3CCNCC3)c2)cnc1N)c1c(Cl)ccc(F)c1Cl [Crizotinib] + Cn1cnc2c(F)c(Nc3ccc(Br)cc3Cl)c(C(=O)NOCCO)cc21 [Selumetinib] (first compound max 10 µM, 7x7, partner max 10 µM)
-0.0414

Provide value of Bliss excess for this record tested with FU97 (Gastric Carcinoma): COc1cc2ncnc(Nc3ccc(F)c(Cl)c3)c2cc1OCCCN1CCOCC1 [Gefitinib] + CC(C)n1c(=O)n(C)c2cnc3cc(F)c(-c4ccc(OCCCN5CCCCC5)nc4)cc3c21 [AZD1390] (first compound max 10 µM, 7x7, partner max 0.3 µM)
-0.0177

---

tested on: TT (Thyroid Gland Carcinoma); experiment: combination Emax (second highest fraction inhibited in the dose matrix, 72 h); higher = more inhibition; extreme values may be limits of the assay
Each entry below carries its reported combination Emax.
When you answer, write just the number.

// below: answered compounds
* CCc1c2c(nc3ccc(O)cc13)-c1cc3c(c(=O)n1C2)COC(=O)[C@]3(O)CC [SN-38] + O=C(c1cc(Cc2n[nH]c(=O)c3ccccc23)ccc1F)N1CCN(C(=O)C2CC2)CC1 [Olaparib] (first compound max 0.3 µM, 7x7, partner max 10 µM) | 0.892
* N#Cc1cnc(Nc2cc(NC[C@H]3CNCCO3)c(C(F)(F)F)cn2)cn1 [SRA737] + CCc1c2c(nc3ccc(O)cc13)-c1cc3c(c(=O)n1C2)COC(=O)[C@]3(O)CC [SN-38] (first compound max 10 µM, 7x7, partner max 0.3 µM) | 0.883
* C[C@@H](Oc1cc(-c2cnn(C3CCNCC3)c2)cnc1N)c1c(Cl)ccc(F)c1Cl [Crizotinib] + Cn1cnc2c(F)c(Nc3ccc(Br)cc3Cl)c(C(=O)NOCCO)cc21 [Selumetinib] (first compound max 10 µM, 7x7, partner max 10 µM) | 0.479

Please report the recorded combination Emax for Cc1c2c(nn1C)CSCc1cc(n(C)n1)CSc1cc(c3ccccc3c1)OCCCc1c(C(=O)O)n(C)c3c-2c(Cl)ccc13 [AZD5991] + C[C@@H](Nc1cc(F)cc(F)c1)c1cc(C(=O)N(C)C)cc2c(=O)cc(N3CCOCC3)oc12 [AZD8186] (first compound max 1 µM, 7x7, partner max 3 µM) .
0.394

Please report the recorded combination Emax for C[C@@H]1COCCN1c1cc(C2([S@](C)(=N)=O)CC2)nc(-c2ccnc3[nH]ccc23)n1 [AZD6738] + O=C(c1cc(Cc2n[nH]c(=O)c3ccccc23)ccc1F)N1CCN(C(=O)C2CC2)CC1 [Olaparib] (first compound max 10 µM, 7x7, partner max 10 µM) .
0.419

Please report the recorded combination Emax for C[C@@H](c1ccc2nccn2c1)n1nnc2ncc(-c3cnn(C)c3)nc21 [Savolitinib] + CC1(C)CCC(CN2CCN(c3ccc(C(=O)NS(=O)(=O)c4ccc(NCC5CCOCC5)c([N+](=O)[O-])c4)c(Oc4cnc5[nH]ccc5c4)c3)CC2)=C(c2ccc(Cl)cc2)C1 [Venetoclax] (first compound max 1 µM, 7x7, partner max 1 µM) .
0.173

Please report the recorded combination Emax for CC1(C)CCC(CN2CCN(c3ccc(C(=O)NS(=O)(=O)c4ccc(NCC5CCOCC5)c([N+](=O)[O-])c4)c(Oc4cnc5[nH]ccc5c4)c3)CC2)=C(c2ccc(Cl)cc2)C1 [Venetoclax] + C[C@@H]1COCCN1C2=NC(=NC(=C2)C3(CC3)[S@](=N)(=O)C)C4=C5C=CNC5=NC=C4 [AZD6738] (first compound max 1 µM, 7x7, partner max 10 µM) .
0.702
